Examples of compounds with documented Ki follow.
Molecular target: Sodium-dependent dopamine transporter (Homo sapiens, UniProt Q01959)
Sequence (Q01959 whole entry): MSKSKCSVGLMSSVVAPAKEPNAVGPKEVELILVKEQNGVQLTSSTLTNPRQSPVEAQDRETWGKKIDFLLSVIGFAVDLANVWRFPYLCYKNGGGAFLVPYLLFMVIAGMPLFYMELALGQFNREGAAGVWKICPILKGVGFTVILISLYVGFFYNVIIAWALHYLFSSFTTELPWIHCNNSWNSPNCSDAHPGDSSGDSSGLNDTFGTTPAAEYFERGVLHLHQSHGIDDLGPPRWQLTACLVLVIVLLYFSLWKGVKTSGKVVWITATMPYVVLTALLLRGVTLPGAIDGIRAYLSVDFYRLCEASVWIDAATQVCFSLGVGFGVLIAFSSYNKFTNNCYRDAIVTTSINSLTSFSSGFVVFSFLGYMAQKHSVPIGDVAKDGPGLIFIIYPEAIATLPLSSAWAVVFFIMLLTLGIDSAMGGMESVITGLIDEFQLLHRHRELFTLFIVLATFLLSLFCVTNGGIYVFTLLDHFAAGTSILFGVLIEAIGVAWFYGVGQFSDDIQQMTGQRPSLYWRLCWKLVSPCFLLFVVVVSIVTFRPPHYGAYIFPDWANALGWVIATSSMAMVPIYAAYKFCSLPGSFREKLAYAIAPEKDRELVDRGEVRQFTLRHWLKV
Assay: Displacement of [3H]WIN-35428 from human DAT expressed in HEK293 cells
Type: cell-based
endpoint label: Ki (µM)

>>> quantitative_result("[11CH3]Oc1ccc2c(c1)CCN(CCCc1c[nH]c3ccc(Br)cc13)C2")
1.03
>>> quantitative_result("[11CH3]Oc1cccc2c1CCN(CCCc1c[nH]c3ccc(F)cc13)C2")
1.48

---

Molecular target: Sodium-dependent serotonin transporter (Homo sapiens, UniProt P31645)
Sequence (P31645 whole entry): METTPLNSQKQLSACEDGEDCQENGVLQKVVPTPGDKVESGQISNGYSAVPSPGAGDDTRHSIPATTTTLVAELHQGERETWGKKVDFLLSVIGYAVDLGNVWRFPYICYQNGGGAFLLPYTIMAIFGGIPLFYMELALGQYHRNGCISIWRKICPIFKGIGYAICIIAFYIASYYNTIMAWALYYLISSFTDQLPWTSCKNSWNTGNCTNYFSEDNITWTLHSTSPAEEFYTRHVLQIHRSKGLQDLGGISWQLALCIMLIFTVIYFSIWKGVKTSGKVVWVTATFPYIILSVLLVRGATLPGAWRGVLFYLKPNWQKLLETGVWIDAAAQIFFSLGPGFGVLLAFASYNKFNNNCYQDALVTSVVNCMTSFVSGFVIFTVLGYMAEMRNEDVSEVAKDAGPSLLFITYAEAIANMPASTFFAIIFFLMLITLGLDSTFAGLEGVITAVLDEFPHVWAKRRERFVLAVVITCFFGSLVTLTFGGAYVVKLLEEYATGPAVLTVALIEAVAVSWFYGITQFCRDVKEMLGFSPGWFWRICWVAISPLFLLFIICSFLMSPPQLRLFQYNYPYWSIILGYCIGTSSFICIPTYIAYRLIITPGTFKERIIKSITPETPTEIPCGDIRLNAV
Assay: biochemical
Assay type: cell-based, HEK293
pKi: −log10 of the molar value.
Examples of molecules with documented pKi follow.
endpoint label: pKi

>>> quantitative_result("[11CH3]Oc1ccc2c(c1)CCN(CCCc1c[nH]c3ccc(Br)cc13)C2")
7.88
>>> quantitative_result("[11CH3]Oc1ccc2c(c1)CCN(CCCc1c[nH]c3ccc(I)cc13)C2")
5.95
>>> quantitative_result("[11CH3]Oc1cccc2c1CCN(CCCc1c[nH]c3ccc(Br)cc13)C2")
5.53
>>> quantitative_result("[11CH3]Oc1ccc2c(c1)CCN(CCCc1c[nH]c3ccc(F)cc13)C2")
7.60
>>> quantitative_result("[11CH3]Oc1cccc2c1CCN(CCCc1c[nH]c3ccc(I)cc13)C2")
5.58
>>> quantitative_result("CNC(C)Cc1ccc2c(c1)OCO2 (configuration not stated)")
8.69
>>> quantitative_result("[11CH3]Oc1cccc2c1CCN(CCCc1c[nH]c3ccc(F)cc13)C2")
7.35
